Target: T1, human IL-1α (human, UniProt P01583 113-271)
T1 sequence (looked up): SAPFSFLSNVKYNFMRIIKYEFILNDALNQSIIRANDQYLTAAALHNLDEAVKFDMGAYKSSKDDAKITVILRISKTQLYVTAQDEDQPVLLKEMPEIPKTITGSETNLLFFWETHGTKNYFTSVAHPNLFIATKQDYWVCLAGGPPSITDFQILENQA
Test: cell-based or functional assay
readout-name: ND50 (nM)
Numbers only; they are read as nM.

These recorded examples may help you get a feel for the data.
binder: ABT1-141-53 (other, VK dAb) VL: DIQMTQSPSSLSASVGDRVTITCRASQWIQKQLAWYQLKPGKTPKLLIFSSSYLQSGVPSRFSGSGSGTDFTLTISSLQPEDFATYYCQQHLRVPMTFGQGTKVEIKR
ND50, nM: 10

binder: ABT1-164 (other, VK dAb) VL: DIQMTQSPSSLSASVGDRVTITCRASRPIAGNLRWYQQKPGKAPKLLIWGASSLQSGVPSRFSGSGSGTDFTLTISSLQPEDFATYYCVQGWQWPITFGQGTKVEIKR
ND50, nM: 14

binder: ABT1-9 (other) VL: DIQMTQSPSSLSASVGDRVTITCRASQSIGSSLLWYQQKPGKAPKLLIYLASRLQSGVPSRFSGSGSGTDFTLTISSLQPEDFATYYCQQFRSTPNTFGQGTKVEIKR
ND50, nM: 4000

binder: ABT1-95-92 (other, VK dAb) VL: DIQMTQSPSSLSASVGDRVTITCRASQPIVRNLRWYQQKPGKAPKLLIYSSSTLEPGVPSRFSGSGSGTDFTLTISSLQPEDFATYHCQQGYRWPVTFGQGTKVEIKR
ND50, nM: 0.5

binder: ABT1-95-166 (other) VL: DIQMTQSPSSLSASVGDRVTITCRASQPIVRNLRWYQQKPGKAPKLLIYSKSYLEPGVPSRFSGSGSGTDFTLTISSLQPEDFATYHCQQGYRWPVTFGQGTKVEIKR
ND50, nM: 0.035

For the binder ABT1-95-134 (other) VL: DIQMTQSPSSLSASVGDRVTITCRASQPIVRNLRWYQQKPGKAPKLLIYSSSYLEPGVPSRFSGSGSGTDFTLTISSLQPEDFATYHCAQGYRWPVTFGQGTKVEIKR , what ND50 is on record?
0.075

Another binder to look at: ABT1-6-23 (other, VH dAb) VH: EVQLLESGGGLVQPGGSLRLSCAASGFTFVRYDMAWVRQAPGKGLEWVSSIYKSGALTSYADSVKGRFTISRDNSKNTLYLQMNSLRAEDTAVYYCAKGWASFDYWGQGTLVTVSS
30
